targetOrSystem: TrpI (PpTrpI/PPP_RS00425 inducible system) (Pseudomonas putida, UniProt Q88RP5)
Sequence (Q88RP5 1-298): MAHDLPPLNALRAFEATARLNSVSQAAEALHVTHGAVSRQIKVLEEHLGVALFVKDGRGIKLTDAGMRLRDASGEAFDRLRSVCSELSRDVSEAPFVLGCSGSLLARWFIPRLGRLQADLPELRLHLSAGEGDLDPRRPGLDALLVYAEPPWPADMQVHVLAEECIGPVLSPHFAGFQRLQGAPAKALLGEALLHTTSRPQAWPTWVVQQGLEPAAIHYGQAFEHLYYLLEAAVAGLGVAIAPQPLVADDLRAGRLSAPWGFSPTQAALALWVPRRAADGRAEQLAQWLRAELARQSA
assayRemarks: RFP reporter induction in whole cells, Hill fit
runConditions: read-out: Km
propertyMeasured: EC50 (µM)
The answer is to be given in µM; state only the numeric part.

Ask: # query: EC50 of entry c1ccc2[nH]ccc2c1 [compound 1, indole]
Result: 1350
